- assayDetails: Small-animal PET of PC-3 tumor-bearing mice
- assaySetup: male, athymic nude, mouse, in vivo, iv, total radioactivity, PC-3 tumor uptake with RGD+BBN blocking, 1 h, 3.7 MBq, co-injected RGD 10 mg/kg and BBN 15 mg/kg
metricName: tissue uptake at 1 h

{"columns": ["compound", "tissue uptake at 1 h"],
 "data": [
  ["CSCC[C@H](NC(=O)[C@H](CC(C)C)NC(=O)[C@H](Cc1c[nH]cn1)NC(=O)CNC(=O)[C@@H](NC(=O)[C@H](C)NC(=O)[C@H](Cc1c[nH]c2ccccc12)NC(=O)[C@H](CCC(N)=O)NC(=O)CCCCCNC(=O)CC[C@H](NC(=O)COCCOCCOCCNC(=O)c1ccc([18F])cc1)C(=O)NCCCC[C@@H]1NC(=O)[C@@H](Cc2ccc(O)cc2)NC(=O)[C@H](CC(=O)O)NC(=O)CNC(=O)[C@H](CCCNC(=N)N)NC1=O)C(C)C)C(N)=O [^18F-FB-PEG3-RGD-BBN]", "0.43 %ID/g"]
]}

Proceeding to the next compound to report its tissue uptake at 1 h.
IN: Using the record for CSCC[C@H](NC(=O)[C@H](CC(C)C)NC(=O)[C@H](Cc1c[nH]cn1)NC(=O)CNC(=O)[C@@H](NC(=O)[C@H](C)NC(=O)[C@H](Cc1c[nH]c2ccccc12)NC(=O)[C@H](CCC(N)=O)NC(=O)CCCCCNC(=O)CC[C@H](NC(=S)Nc1ccc(C[C@H]2CN(CC(=O)O)CCN(CC(=O)O)CCN2CC(=O)O)cc1)C(=O)NCCCC[C@@H]1NC(=O)[C@@H](Cc2ccc(O)cc2)NC(=O)[C@H](CC(=O)O)NC(=O)CNC(=O)[C@H](CCCNC(=N)N)NC1=O)C(C)C)C(N)=O [^68Ga-NOTA-RGD-BBN, metal not drawn] , report its tissue uptake at 1 h.
OUT: 0.42 %ID/g

###

- assayDetails: MicroPET blood and normal organ uptake in T47D and MDA-MB-435 tumor-bearing nude mice
- assaySetup: nude, mouse, kidney, iv, total radioactivity, Kidney uptake, average of eight mice, 1 h
metricName: tissue uptake at 1 h (%ID/g)
Expressed in %ID/g, but write only the number.

IN: Using the record for CSCC[C@H](NC(=O)[C@H](CC(C)C)NC(=O)[C@H](Cc1c[nH]cn1)NC(=O)CNC(=O)[C@@H](NC(=O)[C@H](C)NC(=O)[C@H](Cc1c[nH]c2ccccc12)NC(=O)[C@H](CCC(N)=O)NC(=O)CCCCCNC(=O)CC[C@H](NC(=S)Nc1ccc(C[C@H]2CN(CC(=O)O)CCN(CC(=O)O)CCN2CC(=O)O)cc1)C(=O)NCCCC[C@@H]1NC(=O)[C@@H](Cc2ccc(O)cc2)NC(=O)[C@H](CC(=O)O)NC(=O)CNC(=O)[C@H](CCCNC(=N)N)NC1=O)C(C)C)C(N)=O [^68Ga-NOTA-RGD-BBN, metal not drawn] , report its tissue uptake at 1 h.
OUT: 3.96

###

- assayDetails: MicroPET blood and normal organ uptake in T47D and MDA-MB-435 tumor-bearing nude mice
- assaySetup: nude, mouse, muscle, iv, total radioactivity, Muscle uptake, average of eight mice, 1 h
metricName: tissue uptake at 1 h (%ID/g)
Expressed in %ID/g, but write only the number.

IN: Using the record for CSCC[C@H](NC(=O)[C@H](CC(C)C)NC(=O)[C@H](Cc1c[nH]cn1)NC(=O)CNC(=O)[C@@H](NC(=O)[C@H](C)NC(=O)[C@H](Cc1c[nH]c2ccccc12)NC(=O)[C@H](CCC(N)=O)NC(=O)CCCCCNC(=O)CC[C@H](NC(=S)Nc1ccc(C[C@H]2CN(CC(=O)O)CCN(CC(=O)O)CCN2CC(=O)O)cc1)C(=O)NCCCC[C@@H]1NC(=O)[C@@H](Cc2ccc(O)cc2)NC(=O)[C@H](CC(=O)O)NC(=O)CNC(=O)[C@H](CCCNC(=N)N)NC1=O)C(C)C)C(N)=O [^68Ga-NOTA-RGD-BBN, metal not drawn] , report its tissue uptake at 1 h.
OUT: 1.18
